- Test system: Huh-7
- Assay Overview: Antiproliferative activity against human Huh-7 cells assessed as inhibition of cell growth inhibition incubated for 48 hrs by CCK-8 assay
- Type: functional, cell-based
- Condition Info: Huh-7, 48 h
Quick reference for IC50 among some compounds

Look over these answered cases.
Compound	IC50
N#CC1=C(N)Oc2c(cc(Cl)c3cccnc23)C1c1ccc(F)cc1 (stereo not drawn)	> 10 µM
N#CC1=C(N)Oc2c(ccc3cccnc23)C1c1ccc(Br)cc1 (stereo not drawn)	> 10 µM
Cc1ccc2ccc3c(c2n1)OC(N)=C(C#N)C3c1ccc(Br)cc1 (stereo not drawn)	> 10 µM
COc1ccc(C2C(C#N)=C(N)Oc3c2cc(Cl)c2cccnc32)c(OC)c1OC (stereo not drawn)	> 10 µM
Cc1ccc(C2C(C#N)=C(N)Oc3c2ccc2cccnc32)cc1 (stereo not drawn)	> 10 µM
N#CC1=C(N)Oc2c(ccc3cccnc23)C1c1ccc(F)cc1 (stereo not drawn)	> 10 µM
Cc1ccc(C2C(C#N)=C(N)Oc3c2cc(Cl)c2cccnc32)cc1 (stereo not drawn)	> 10 µM
N#CC1=C(N)Oc2c(cc(Cl)c3cccnc23)C1c1ccc(Br)cc1 (stereo not drawn)	> 10 µM
N#CC1=C(N)Oc2c(ccc3cccnc23)C1c1ccc(Cl)cc1 (stereo not drawn)	> 10 µM
COc1ccc(C2C(C#N)=C(N)Oc3c2cc(Cl)c2cccnc32)cc1OC (stereo not drawn)	> 10 µM

For record CC(C)c1ccc(C2C(C#N)=C(N)Oc3c2ccc2cccnc32)cc1 (stereo not drawn) the listed IC50 is > 10 µM

For record CC(C)c1ccc(C2C(C#N)=C(N)Oc3c2cc(Cl)c2cccnc32)cc1 (stereo not drawn) the listed IC50 is > 10 µM

For record COc1cc(C2C(C#N)=C(N)Oc3c2ccc2ccc(C)nc32)cc(OC)c1Br (stereo not drawn) the listed IC50 is 2.6 µM

For record N#CC1=C(N)Oc2c(ccc3cccnc23)C1c1ccc(Cl)c(Cl)c1 (stereo not drawn) the listed IC50 is 2.35 µM

For record COc1ccc(C2C(C#N)=C(N)Oc3c2ccc2cccnc32)c(OC)c1OC (stereo not drawn) the listed IC50 is > 10 µM

For record COc1ccc(C2C(C#N)=C(N)Oc3c2ccc2ccc(C)nc32)cc1OC (stereo not drawn) the listed IC50 is > 10 µM

For record N#CC1=C(N)Oc2c(ccc3cccnc23)C1c1ccccc1 (stereo not drawn) the listed IC50 is 2.47 µM

For record COc1ccc(C2C(C#N)=C(N)Oc3c2ccc2cccnc32)cc1OC (stereo not drawn) the listed IC50 is 2.95 µM

The origin of these recorded values is ChEMBL document CHEMBL5543095.
